- assay_overview: Human bioavailability study: 24 h urinary excretion
- Assay type: in vivo
- condition_notes: humans
In this section, each of the molecules is paired with its reported 24 h urinary excretion, Difference (absolute) vegetable meal vs snack.
Put your answer as a value accompanied by its unit after it.

Sample answers from the record:
molecule	obs_value
O=c1c(O)c(-c2ccc(O)c(O)c2)oc2cc(O)cc(O)c12 [quercetin]	0.38 nmol per mg intake
COc1cc(-c2oc3cc(O)cc(O)c3c(=O)c2O[C@@H]2O[C@H](C(=O)O)[C@@H](O)[C@H](O)[C@H]2O)ccc1O [IR-3-GlcA, isorhamnetin-3-glucuronide]	1.07 nmol per mg intake
CC(=O)N[C@@H](CSC(=S)NCCCC[S+](C)[O-])C(=O)O (stereo partly shown) [Sulforaphane-NAC, sulforaphane-N-acetyl-cysteine]	236.4 nmol per mg intake
O=c1cc(-c2ccc(O)cc2)oc2cc(O[C@@H]3O[C@H](CO)[C@@H](O)[C@H](O)[C@H]3O)cc(O)c12 [A-7-Glc, apigenin-7-O-glucoside]	0.05 nmol per mg intake
O=c1c(OS(=O)(=O)O)c(-c2ccc(O)c(O)c2)oc2cc(O)cc(O)c12 [Quercetin-3-sulfate]	0.79 nmol per mg intake

Please look up its 24 h urinary excretion, Difference (absolute) vegetable meal vs snack: O=c1c(O[C@@H]2O[C@H](CO)[C@@H](O)[C@H](O)[C@H]2O)c(-c2ccc(O)c(O)c2)oc2cc(O)cc(O)c12 [Quercetin-3-Glc, quercetin-3-O-glucoside] 0.03 nmol per mg intake

What would you report for O=c1cc(-c2ccc(O)cc2)oc2cc(O)cc(O)c12 [apigenin] ? 0.19 nmol per mg intake

Request: O=C(O)[C@H]1O[C@@H](Oc2cc(O)c3c(=O)cc(-c4ccc(O)cc4)oc3c2)[C@H](O)[C@@H](O)[C@@H]1O [A-7-GlcA] 0.99 nmol per mg intake

And for C[S+]([O-])CCCCN=C=S (stereo not shown) [Sulforaphane] ? 7.47 nmol per mg intake

// repeat for O=C(O)[C@H]1O[C@@H](Oc2c(-c3ccc(O)c(O)c3)oc3cc(O)cc(O)c3c2=O)[C@H](O)[C@@H](O)[C@@H]1O [Quercetin-3-GlcA, quercetin-3-glucuronide] and report 0.23 nmol per mg intake

====

- assay_overview: Human bioavailability study: 24 h urinary excretion
- Type: in vivo
- condition_notes: humans, after 75 g baked snack; per mg intake of corresponding compound
parameter: 24 h urinary excretion, Snack (nmol/mg intake)
Give the value in nmol/mg intake but do not write nmol/mg intake after it.

molecule	24 h urinary excretion, Snack / nmol/mg intake
CC(=O)N[C@@H](CSC(=S)NCCCC[S+](C)[O-])C(=O)O (stereo partly drawn)	272.17
O=c1c(O[C@@H]2O[C@H](CO)[C@@H](O)[C@H](O)[C@H]2O)c(-c2ccc(O)c(O)c2)oc2cc(O)cc(O)c12 [Quercetin-3-Glc, quercetin-3-O-glucoside]	0.04

Please look at the following molecule next.
Tell me the measured 24 h urinary excretion, Snack of "O=c1cc(-c2ccc(O)cc2)oc2cc(O)cc(O)c12" , please. 3.37

====

- assay_overview: Human bioavailability study: 24 h urinary excretion
- Format: in vivo
- condition_notes: humans, after 461 g vegetable meal; per mg intake of corresponding compound
MET means recorded 24 h urinary excretion, Vegetable meal is 3 nmol/mg intake or above; NOT MET means it is below 3 nmol/mg intake.

Please check the record COc1cc(-c2oc3cc(O)cc(O)c3c(=O)c2O[C@@H]2O[C@H](C(=O)O)[C@@H](O)[C@H](O)[C@H]2O)ccc1O [IR-3-GlcA, isorhamnetin-3-glucuronide] and state if its 24 h urinary excretion, Vegetable meal is at or above 3 nmol/mg intake. NOT MET

Another compound to check: C[S+]([O-])CCCCN=C=S (stereo not shown) [Sulforaphane] MET

Try the compound O=C(O)[C@H]1O[C@@H](Oc2c(-c3ccc(O)c(O)c3)oc3cc(O)cc(O)c3c2=O)[C@H](O)[C@@H](O)[C@@H]1O [Quercetin-3-GlcA, quercetin-3-glucuronide] MET

Same lookup for O=C(O)[C@H]1O[C@@H](Oc2cc(O)c3c(=O)cc(-c4ccc(O)cc4)oc3c2)[C@H](O)[C@@H](O)[C@@H]1O [A-7-GlcA] , please. MET

Here is the next compound: O=c1cc(-c2ccc(O)cc2)oc2cc(O)cc(O)c12 [apigenin] MET

What do you have for CC(=O)N[C@@H](CSC(=S)NCCCC[S+](C)[O-])C(=O)O (stereo partly shown) [Sulforaphane-NAC, sulforaphane-N-acetyl-cysteine] ? MET

Follow-up entry: O=c1c(O[C@@H]2O[C@H](CO)[C@@H](O)[C@H](O)[C@H]2O)c(-c2ccc(O)c(O)c2)oc2cc(O)cc(O)c12 [Quercetin-3-Glc, quercetin-3-O-glucoside] NOT MET
